Documented Comparison with the Binding of Phenylalanine across a set of molecules
- TEST_TARGET: L1 transport system (large neutral amino acid carrier, L1-system carrier) (Rattus norvegicus)
- Construct: functionality of their endogenous transporters such as the L1-system carrier; endogenous in cells; host or cells: rat primary cerebrovascular (brain microcapillary) endothelial cells, RBEC
- TEST_PROTOCOL: Competitive binding assay to the brain L1 transport system (L-[U-14C]phenylalanine on rat primary cerebrovascular endothelial cells)
- ASSAY_SETUP: 10^−6 M

>  <MOLECULE>
NC(Cc1cccc(CN2CC=CCC2)n1)C(=O)O (centres unmarked) [Compound 160]

>  <RESULT>
1 (0 < X < 10 Rank 1)

$$$$
>  <MOLECULE>
NC(Cc1cccc(CSc2nnc(-c3ccccc3)[nH]2)c1)C(=O)O (centres unmarked) [Compound 13]

>  <RESULT>
3 (X > 20 Rank 3)

$$$$
>  <MOLECULE>
CCOC(=O)c1c[nH]c(SCc2ccc(-c3ccc(CC(N)C(=O)O)cc3)cc2)nc1=O (centres unmarked) [Compound 87]

>  <RESULT>
3 (X > 20 Rank 3)

$$$$
>  <MOLECULE>
O=C(Nc1ccc(-c2ccccc2)cc1)NC(Cc1cccc(CSc2nc3ccccc3o2)n1)C(=O)O (centres unmarked) [Compound 63]

>  <RESULT>
1 (0 < X < 10 Rank 1)

$$$$

// moving on: another record for Comparison with the Binding of Phenylalanine
-- ask For NC(Cc1cccc(CSc2nccc(C(F)(F)F)n2)n1)C(=O)O (centres unmarked) [Compound 21] , what is its reported Comparison with the Binding of Phenylalanine?
-- reply 1 (0 < X < 10 Rank 1)

====

- TEST_TARGET: IAPP (Homo sapiens, UniProt P10997)
- Construct: which is a 37 amino acid peptide, derived from a larger precursor peptide, called pro-IAPP
- Sequence (P10997 34-70 limits assumed): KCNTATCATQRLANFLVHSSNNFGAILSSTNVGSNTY
- TEST_PROTOCOL: Electrospray MS assay for binding to IAPP
- Parameters: key: 0 = None
- ASSAY_SETUP: 100 μM compound, 20 μM IAPP, pH 7.4, aqueous solution
PROPERTY_LABEL: MS Results (IAPP binding), Water

>  <MOLECULE>
N[C@@H](Cc1cccc(C[S+]([O-])c2nnnn2-c2ccccc2)n1)C(=O)O (stereo partly drawn) [drawing 522]

>  <MS Results (IAPP binding), Water>
0

$$$$

// moving on: another record for MS Results (IAPP binding), Water
-- ask For N[C@@H](Cc1cccc(CSc2ncc[nH]2)c1)C(=O)O , what is its reported MS Results (IAPP binding), Water?
-- reply 0

====

- TEST_TARGET: L1 transport system (large neutral amino acid carrier, L1-system carrier) (Rattus norvegicus, UniProt Q63016)
- Construct: functionality of their endogenous transporters such as the L1-system carrier; endogenous in cells; host or cells: rat primary cerebrovascular (brain microcapillary) endothelial cells, RBEC
- Sequence (Q63016 whole entry): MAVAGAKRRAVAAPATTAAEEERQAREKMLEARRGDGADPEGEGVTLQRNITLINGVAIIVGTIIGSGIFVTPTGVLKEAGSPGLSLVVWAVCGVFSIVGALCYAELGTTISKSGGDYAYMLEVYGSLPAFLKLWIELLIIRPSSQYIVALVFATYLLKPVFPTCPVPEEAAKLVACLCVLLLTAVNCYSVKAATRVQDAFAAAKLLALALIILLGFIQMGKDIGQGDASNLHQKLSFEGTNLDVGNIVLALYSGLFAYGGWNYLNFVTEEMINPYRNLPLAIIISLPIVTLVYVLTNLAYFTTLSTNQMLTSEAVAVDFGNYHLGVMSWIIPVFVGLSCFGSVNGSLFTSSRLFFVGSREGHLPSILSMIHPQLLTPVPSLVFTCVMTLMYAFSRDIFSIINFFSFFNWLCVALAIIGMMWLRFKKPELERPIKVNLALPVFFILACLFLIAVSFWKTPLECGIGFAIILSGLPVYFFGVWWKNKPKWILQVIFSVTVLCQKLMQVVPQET
- Sequence (Q794F9 whole entry partner): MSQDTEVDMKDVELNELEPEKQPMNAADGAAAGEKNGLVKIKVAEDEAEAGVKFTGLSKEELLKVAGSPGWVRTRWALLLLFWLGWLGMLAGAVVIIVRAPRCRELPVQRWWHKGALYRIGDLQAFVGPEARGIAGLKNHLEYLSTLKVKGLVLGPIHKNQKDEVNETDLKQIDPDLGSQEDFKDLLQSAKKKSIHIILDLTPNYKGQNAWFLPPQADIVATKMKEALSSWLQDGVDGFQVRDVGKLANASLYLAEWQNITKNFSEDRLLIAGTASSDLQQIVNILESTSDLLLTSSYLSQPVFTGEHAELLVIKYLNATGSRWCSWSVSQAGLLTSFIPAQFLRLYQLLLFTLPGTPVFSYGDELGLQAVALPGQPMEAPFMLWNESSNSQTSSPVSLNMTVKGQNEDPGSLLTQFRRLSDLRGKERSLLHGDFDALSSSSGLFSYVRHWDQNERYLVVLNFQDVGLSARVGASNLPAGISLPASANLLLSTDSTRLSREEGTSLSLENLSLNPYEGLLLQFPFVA
- TEST_PROTOCOL: Competitive binding assay to the brain L1 transport system (L-[U-14C]phenylalanine on rat primary cerebrovascular endothelial cells)
- ASSAY_SETUP: 10^−6 M
PROPERTY_LABEL: Comparison with the Binding of Phenylalanine

>  <COMPOUND>
N#CC1(c2ccccc2)CCN(Cc2cccc(CC(N)C(=O)O)n2)CC1 (stereo not shown) [Compound 117]

>  <RESULT>
1 (0 < X < 10 Rank 1)

$$$$
>  <COMPOUND>
NC(=O)C(Cc1cccc(CSc2nnc(-c3ccncc3)o2)c1)NC(=O)NC(c1ccccc1)c1ccccc1 (stereo not shown) [Compound 55]

>  <RESULT>
2 (10 < X < 20 Rank 2)

$$$$

-- ask For O=C(Nc1ccc(-c2ccccc2)cc1)NC(Cc1cccc(CSc2nnc(-c3ccccc3)o2)c1)C(=O)O (stereo not shown) [Compound 49] , what is its reported Comparison with the Binding of Phenylalanine?
-- reply 3 (X > 20 Rank 3)

-- ask For NC(Cc1cccc(-c2cccc(Sc3nc4cc([N+](=O)[O-])ccc4s3)c2)c1)C(=O)O (stereo not shown) [Compound 109] , what is its reported Comparison with the Binding of Phenylalanine?
-- reply 3 (X > 20 Rank 3)

-- ask For NC(Cc1cccc(-c2cccc(Sc3nc(-c4ccccc4)c(-c4ccccc4)[nH]3)c2)c1)C(=O)O (stereo not shown) [Compound 74] , what is its reported Comparison with the Binding of Phenylalanine?
-- reply 1 (0 < X < 10 Rank 1)

-- ask For O=C(O)C(Cc1cccc(CSc2nnc(-c3ccncc3)o2)c1)NS(=O)(=O)c1ccc(F)cc1 (stereo not shown) [Compound 12] , what is its reported Comparison with the Binding of Phenylalanine?
-- reply 2 (10 < X < 20 Rank 2)

-- ask For NC(Cc1cccc(CSc2ncccn2)n1)C(=O)O (stereo not shown) [Compound 154] , what is its reported Comparison with the Binding of Phenylalanine?
-- reply 0 (X < 0 Rank 0)

-- ask For NC(Cc1ccc(-c2ccc(CSc3ncccc3C(=O)O)cc2)cc1)C(=O)O (stereo not shown) [Compound 93] , what is its reported Comparison with the Binding of Phenylalanine?
-- reply 1 (0 < X < 10 Rank 1)

-- ask For NC(=O)C(N)Cc1cccc(CSc2nnnn2-c2ccc(O)cc2)c1 (stereo not shown) [Compound 4] , what is its reported Comparison with the Binding of Phenylalanine?
-- reply 3 (X > 20 Rank 3)

-- ask For CN(C)CCn1nnnc1Sc1cccc(-c2cccc(CC(N)C(=O)O)c2)c1 (stereo not shown) [Compound 103] , what is its reported Comparison with the Binding of Phenylalanine?
-- reply 2 (10 < X < 20 Rank 2)

====

- TEST_TARGET: L1 transport system (large neutral amino acid carrier, L1-system carrier) (Rattus norvegicus)
- Construct: functionality of their endogenous transporters such as the L1-system carrier; endogenous in cells; host or cells: rat primary cerebrovascular (brain microcapillary) endothelial cells, RBEC
- TEST_PROTOCOL: Competitive binding assay to the brain L1 transport system (L-[U-14C]phenylalanine on rat primary cerebrovascular endothelial cells)
- ASSAY_SETUP: 10^−6 M
PROPERTY_LABEL: Comparison with the Binding of Phenylalanine

>  <COMPOUND>
NC(Cc1cccc(CSc2ncc[nH]2)c1)C(=O)O (stereo not drawn)

>  <RESULT>
3 (X > 20 Rank 3)

$$$$
>  <COMPOUND>
CC(=O)c1ccc(N2CCN(Cc3cccc(CC(N)C(=O)O)n3)CC2)cc1 (stereo not drawn)

>  <RESULT>
0 (X < 0 Rank 0)

$$$$
>  <COMPOUND>
NC(Cc1cccc(CSc2ncnc3[nH]ncc23)n1)C(=O)O (stereo not drawn)

>  <RESULT>
3 (X > 20 Rank 3)

$$$$

-- ask For NC(Cc1ccc(-c2ccc(CN3CCN(c4ncccn4)CC3)cc2)cc1)C(=O)O (stereo not drawn) , what is its reported Comparison with the Binding of Phenylalanine?
-- reply 1 (0 < X < 10 Rank 1)

-- ask For NC(=O)C(N)Cc1cccc(CSc2nnc(-c3ccncc3)o2)c1 (stereo not drawn) , what is its reported Comparison with the Binding of Phenylalanine?
-- reply 2 (10 < X < 20 Rank 2)

-- ask For NC(Cc1cccc(CSc2nnnn2CC(=O)O)n1)C(=O)O (stereo not drawn) , what is its reported Comparison with the Binding of Phenylalanine?
-- reply 2 (10 < X < 20 Rank 2)

-- ask For O=C(Nc1ccc(-c2ccccc2)cc1)NC(Cc1cccc(CSc2nnnn2-c2ccc(O)cc2)c1)C(=O)O (stereo not drawn) , what is its reported Comparison with the Binding of Phenylalanine?
-- reply 2 (10 < X < 20 Rank 2)

-- ask For O=C(O)C(Cc1cccc(CSc2nnc[nH]2)n1)NS(=O)(=O)c1ccc(F)cc1 (stereo not drawn) , what is its reported Comparison with the Binding of Phenylalanine?
-- reply 0 (X < 0 Rank 0)

-- ask For NC(=O)C(N)Cc1cccc(CSc2ncc[nH]2)c1 (stereo not drawn) , what is its reported Comparison with the Binding of Phenylalanine?
-- reply 3 (X > 20 Rank 3)

====

- TEST_TARGET: L1 transport system (large neutral amino acid carrier, L1-system carrier) (Rattus norvegicus, UniProt Q63016)
- Construct: functionality of their endogenous transporters such as the L1-system carrier; endogenous in cells; host or cells: rat primary cerebrovascular (brain microcapillary) endothelial cells, RBEC
- TEST_PROTOCOL: Competitive binding assay to the brain L1 transport system (L-[U-14C]phenylalanine on rat primary cerebrovascular endothelial cells)
- ASSAY_SETUP: 10^−6 M
PROPERTY_LABEL: Comparison with the Binding of Phenylalanine

Below, each entry is followed by its recorded Comparison with the Binding of Phenylalanine result.
>  <MOLECULE>
NC(Cc1ccc(-c2ccc(CSc3nc4ccccc4c(=O)[nH]3)cc2)cc1)C(=O)O (centres unmarked)

>  <RESULT>
2 (10 < X < 20 Rank 2)

$$$$
>  <MOLECULE>
O=C(Nc1ccc(-c2ccccc2)cc1)NC(Cc1cccc(CSc2ncc[nH]2)c1)C(=O)O (centres unmarked)

>  <RESULT>
1 (0 < X < 10 Rank 1)

$$$$
>  <MOLECULE>
NC(Cc1ccc(-c2ccc(CN3CCN(c4ccc(F)cc4)CC3)cc2)cc1)C(=O)O (centres unmarked)

>  <RESULT>
1 (0 < X < 10 Rank 1)

$$$$
>  <MOLECULE>
NC(Cc1ccc(-c2ccc(CN3CCN(c4cccc(Cl)c4)CC3)cc2)cc1)C(=O)O (centres unmarked)

>  <RESULT>
2 (10 < X < 20 Rank 2)

$$$$
>  <MOLECULE>
NC(Cc1cccc(CSc2nc3ccccc3o2)n1)C(=O)O (centres unmarked)

>  <RESULT>
3 (X > 20 Rank 3)

$$$$
>  <MOLECULE>
NC(Cc1ccc(-c2ccc(CN3CC=CCC3)cc2)cc1)C(=O)O (centres unmarked)

>  <RESULT>
0 (X < 0 Rank 0)

$$$$
>  <MOLECULE>
COc1ccc2[nH]c(Sc3cccc(-c4cccc(CC(N)C(=O)O)c4)c3)nc2c1 (centres unmarked)

>  <RESULT>
1 (0 < X < 10 Rank 1)

$$$$
>  <MOLECULE>
NC(Cc1cccc(-c2cccc(Sc3nnnn3CC(=O)O)c2)c1)C(=O)O (centres unmarked)

>  <RESULT>
1 (0 < X < 10 Rank 1)

$$$$

// moving on: another record for Comparison with the Binding of Phenylalanine
-- ask For NC(Cc1cccc(CSc2ccnc3cc(C(F)(F)F)ccc23)n1)C(=O)O (centres unmarked) , what is its reported Comparison with the Binding of Phenylalanine?
-- reply 0 (X < 0 Rank 0)
